Target: Uridine 5'-monophosphate synthase (Homo sapiens)
Sequence (P11172 whole entry): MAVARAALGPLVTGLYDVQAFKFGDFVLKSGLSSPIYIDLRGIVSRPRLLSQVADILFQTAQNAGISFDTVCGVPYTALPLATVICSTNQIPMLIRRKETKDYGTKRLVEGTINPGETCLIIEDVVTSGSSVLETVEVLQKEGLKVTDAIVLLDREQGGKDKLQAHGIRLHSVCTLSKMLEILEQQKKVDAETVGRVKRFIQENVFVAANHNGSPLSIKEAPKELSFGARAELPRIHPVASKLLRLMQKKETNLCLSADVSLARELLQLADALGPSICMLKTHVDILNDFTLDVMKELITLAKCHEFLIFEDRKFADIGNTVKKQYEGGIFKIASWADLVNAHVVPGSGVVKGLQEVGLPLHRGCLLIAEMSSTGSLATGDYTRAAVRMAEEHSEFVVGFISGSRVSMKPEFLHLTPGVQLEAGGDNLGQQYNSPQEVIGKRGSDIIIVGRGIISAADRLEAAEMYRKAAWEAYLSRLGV
Test: Irreversible inhibition of human ODCase
pKi: −log10 of the molar value.
Readout: pKi

A. O=c1[nH]c(=O)n([C@@H]2O[C@H](COP(=O)(O)O)[C@@H](O)[C@H]2O)c(I)c1F
B. [N-]=[N+]=Nc1c(F)c(=O)[nH]c(=O)n1[C@@H]1O[C@H](COP(=O)(O)O)[C@@H](O)[C@H]1O
-- ask Compare the recorded pKi of A and B ; state which is larger. The response must carry the label of the picked entry.
-- reply A
(A: 5.96, B: 4.74)

====

Test: Antitumor activity against human LOX cells after 3 days by WST1 assay
Format: functional, cell-based
Settings: 72 h
Below, each entry is listed alongside its reported IC50.

O=c1cc(NO)n([C@@H]2O[C@H](CO)[C@@H](O)[C@H]2O)c(=O)[nH]1: > 50 µM
O=c1[nH]c(=O)n([C@@H]2O[C@H](CO)[C@@H](O)[C@H]2O)c(I)c1Br: > 50 µM
CCc1c(F)c(=O)[nH]c(=O)n1[C@@H]1O[C@H](CO)[C@@H](O)[C@H]1O: 4.5 µM
O=Cc1cc(=O)[nH]c(=O)n1[C@@H]1O[C@H](CO)[C@@H](O)[C@H]1O: > 50 µM
O=c1cc(O)n([C@@H]2O[C@H](COP(=O)(O)O)[C@@H](O)[C@H]2O)c(=O)[nH]1: > 50 µM

-- ask Give me measured IC50, please, for this compound: `Nc1c(F)c(=O)[nH]c(=O)n1[C@@H]1O[C@H](CO)[C@@H](O)[C@H]1O`
-- reply 3.4 µM

-- ask Give me measured IC50, please, for this compound: `O=c1cc(O)n([C@@H]2O[C@H](CO)[C@@H](O)[C@H]2O)c(=O)[nH]1`
-- reply > 50 µM

-- ask Give me measured IC50, please, for this compound: `CC(=O)OC[C@H]1O[C@@H](n2c(I)cc(=O)[nH]c2=O)[C@H](O)[C@@H]1O`
-- reply 1.1 µM

-- ask Give me measured IC50, please, for this compound: `O=Cc1c(F)c(=O)[nH]c(=O)n1[C@@H]1O[C@H](CO)[C@@H](O)[C@H]1O`
-- reply 0.4 µM

====

System: MCF7
Test: Antitumor activity against human MCF7 cells after 3 days by WST1 assay
Type: functional, cell-based
Conditions: MCF7, 72 h
Below, each entry is listed alongside its reported IC50.

CN(C)c1cc(=O)[nH]c(=O)[nH]1: > 50 µM
[N-]=[N+]=Nc1c(F)c(=O)[nH]c(=O)n1[C@@H]1O[C@H](CO)[C@@H](O)[C@H]1O: 1 µM
CN(C)c1cc(=O)[nH]c(=O)n1[C@@H]1O[C@H](CO)[C@@H](O)[C@H]1O: > 50 µM
O=c1cc(O)n([C@@H]2O[C@H](CO)[C@@H](O)[C@H]2O)c(=O)[nH]1: > 50 µM

-- ask State IC50 (MCF7) of `O=Cc1cc(=O)[nH]c(=O)n1[C@@H]1O[C@H](CO)[C@@H](O)[C@H]1O` .
-- reply > 50 µM

====

Target: Uridine 5'-monophosphate synthase (Homo sapiens, UniProt P11172)
Assay: Reversible inhibition of human ODCase
pKi: −log10 of the molar value.
Readout: pKi

A. CCc1c(F)c(=O)[nH]c(=O)n1[C@@H]1O[C@H](COP(=O)(O)O)[C@@H](O)[C@H]1O
B. O=c1[nH]c(=O)n([C@@H]2O[C@H](COP(=O)(O)O)[C@@H](O)[C@H]2O)cc1F
C. Nc1c(F)c(=O)[nH]c(=O)n1[C@@H]1O[C@H](COP(=O)(O)O)[C@@H](O)[C@H]1O
-- ask Rank descending by pKi: all 3 compounds from above. In your reply, arrange the labels in the requested order.
-- reply A, C, B
(A: 6.46, C: 4.78, B: 4.01)

====

Test system: MCF7
Test: Antitumor activity against human MCF7 cells after 3 days by WST1 assay
Assay type: functional, cell-based
Conditions: MCF7, 72 h
Readout: IC50

Recorded IC50, per entry:
O=c1cnn([C@@H]2O[C@H](COP(=O)(O)O)[C@@H](O)[C@H]2O)c(=O)[nH]1 [6-AZA-URIDINE MONOPHOSPHATE]: > 50 µM
O=Cc1c(F)c(=O)[nH]c(=O)n1[C@@H]1O[C@H](CO)[C@@H](O)[C@H]1O: 23.7 µM
N#Cc1cc(=O)[nH]c(=O)n1[C@@H]1O[C@H](CO)[C@@H](O)[C@H]1O: > 50 µM
Nc1cc(=O)[nH]c(=O)n1[C@@H]1O[C@H](CO)[C@@H](O)[C@H]1O: > 50 µM

-- ask Give me measured IC50, please, for this molecule: `Cc1cc(=O)[nH]c(=O)n1[C@@H]1O[C@H](CO)[C@@H](O)[C@H]1O`
-- reply > 50 µM

-- ask Give me measured IC50, please, for this molecule: `O=c1[nH]c(=O)n([C@@H]2O[C@H](CO)[C@@H](O)[C@H]2O)c(I)c1F`
-- reply > 50 µM

-- ask Give me measured IC50, please, for this molecule: `O=c1cc(I)n([C@@H]2O[C@H](CO)[C@@H](O)[C@H]2O)c(=O)[nH]1`
-- reply > 50 µM

-- ask Give me measured IC50, please, for this molecule: `O=c1[nH]c(=O)n([C@@H]2O[C@H](CO)[C@@H](O)[C@H]2O)c(I)c1Br`
-- reply > 50 µM

-- ask Give me measured IC50, please, for this molecule: `[N-]=[N+]=Nc1cc(=O)[nH]c(=O)n1[C@@H]1O[C@H](CO)[C@@H](O)[C@H]1O`
-- reply > 50 µM

-- ask Give me measured IC50, please, for this molecule: `CC(=O)OC[C@H]1O[C@@H](n2c(I)cc(=O)[nH]c2=O)[C@H](O)[C@@H]1O`
-- reply 4.4 µM

-- ask Give me measured IC50, please, for this molecule: `CNc1cc(=O)[nH]c(=O)n1[C@@H]1O[C@H](CO)[C@@H](O)[C@H]1O`
-- reply > 50 µM

-- ask Give me measured IC50, please, for this molecule: `COC(=O)c1cc(=O)[nH]c(=O)n1[C@@H]1O[C@H](CO)[C@@H](O)[C@H]1O`
-- reply > 50 µM

-- ask Give me measured IC50, please, for this molecule: `O=c1cc(NO)n([C@@H]2O[C@H](CO)[C@@H](O)[C@H]2O)c(=O)[nH]1`
-- reply > 50 µM

-- ask Give me measured IC50, please, for this molecule: `CCc1c(F)c(=O)[nH]c(=O)n1[C@@H]1O[C@H](CO)[C@@H](O)[C@H]1O`
-- reply 31.4 µM

-- ask Give me measured IC50, please, for this molecule: `Nc1c(F)c(=O)[nH]c(=O)n1[C@@H]1O[C@H](CO)[C@@H](O)[C@H]1O`
-- reply 1.4 µM

-- ask Give me measured IC50, please, for this molecule: `O=c1cc(O)n([C@@H]2O[C@H](COP(=O)(O)O)[C@@H](O)[C@H]2O)c(=O)[nH]1`
-- reply > 50 µM

====

System: OCI-AML2
Experiment: Antitumor activity against human OCI-AML2 cells after 3 days by WST1 assay
Type: functional, cell-based
Conditions: OCI-AML2, 72 h
pIC50: −log10 of the molar value.
Readout: pIC50

Recorded pIC50, per entry:
CN(C)c1cc(=O)[nH]c(=O)n1[C@@H]1O[C@H](CO)[C@@H](O)[C@H]1O: < 4.30
O=c1cc(O)n([C@@H]2O[C@H](CO)[C@@H](O)[C@H]2O)c(=O)[nH]1: < 4.30

-- ask Give me measured pIC50, please, for this molecule: `Nc1cc(=O)[nH]c(=O)n1[C@@H]1O[C@H](CO)[C@@H](O)[C@H]1O`
-- reply < 4.30

-- ask Give me measured pIC50, please, for this molecule: `[N-]=[N+]=Nc1cc(=O)[nH]c(=O)n1[C@@H]1O[C@H](CO)[C@@H](O)[C@H]1O`
-- reply < 4.30

-- ask Give me measured pIC50, please, for this molecule: `O=c1[nH]c(=O)n([C@@H]2O[C@H](CO)[C@@H](O)[C@H]2O)c(I)c1Br`
-- reply < 4.30

These measurements were taken from ChEMBL document CHEMBL1152809.
